Tested on: ACHN
assay.explanation: NCI tumour cell line growth inhibition, 48 h
The source made the active and inactive calls. No stated cut-off is given here; in the data, active = GI50 up to about 1.1 µM and inactive = higher.
Valid outcomes are listed here; reply with one: active, inactive

Solved entries (count: 5):
molecule: O=[N+]([O-])C(C(Cl)=C(Cl)Cl)=C(N1CCCCC1)N1CCCCC1
experimental.target: ACHN
class.label: inactive
//
molecule: CC(O)c1cc2c(s1)C(=O)c1scc(C(C)O)c1C2=O (configuration not stated)
experimental.target: ACHN
class.label: active
//
molecule: C=CCn1c(-c2ccc(-c3cs/c(=N\N=O)n3CC=C)cc2)cs/c1=N\N=O
experimental.target: ACHN
class.label: inactive
//
molecule: O=[N+]([O-])C1C2C=CC(C2)[C@H]1c1ccco1 (some centres not stated)
experimental.target: ACHN
class.label: inactive
//
molecule: Cc1cccc(C)c1NC(=O)CCCC(=O)C(C#N)c1ccc(Cl)cc1 (configuration not stated)
experimental.target: ACHN
class.label: inactive

Inquiry: What outcome does the record of this test show for Cc1cc(NS(=O)(=O)c2ccc(NC(=O)c3cccc4c(Nc5ccc(S(N)(=O)=O)cc5)c5ccccc5nc34)cc2)no1 ?
Reply text: inactive

Inquiry: What outcome does the record of this test show for CCn1c2ccccc2c2cc(Nc3cc(C)[nH]c(=O)n3)ccc21 ?
Reply text: inactive

Inquiry: What outcome does the record of this test show for CC(C)(C)[Si](C)(C)OCC1OC(n2cnc3c(N)ncnc32)C(O)C1O (configuration not stated) ?
Reply text: inactive

Inquiry: What outcome does the record of this test show for Cc1c2c(c(C)n1-c1ccccc1)C(=O)N(CCN1CCN(c3cccc(C(F)(F)F)c3)CC1)C2=O ?
Reply text: inactive

Inquiry: What outcome does the record of this test show for Cc1cc(O)c(C(C)C)cc1NC(=O)Nc1cccc2ccccc12 ?
Reply text: inactive

Inquiry: What outcome does the record of this test show for NC(Cc1ccccc1)C(=O)O (configuration not stated) ?
Reply text: inactive

Inquiry: What outcome does the record of this test show for CC(C)(/N=N/C(C)(C)C(=N)N)C(=N)N ?
Reply text: inactive

Inquiry: What outcome does the record of this test show for Cc1cc2c(=O)cc(-c3ccncc3)oc2c(C(=O)O)c1C ?
Reply text: inactive

Inquiry: What outcome does the record of this test show for Cc1ccc2nc(/C=N/c3ccc(Cl)cc3)cc(C)c2c1 ?
Reply text: active

Inquiry: What outcome does the record of this test show for COc1cc2c(c(OC3OC(CO)C(O)C(O)C3O)c1)C(=O)CC(c1ccc(O)cc1)O2 (configuration not stated) ?
Reply text: inactive

Inquiry: What outcome does the record of this test show for NNC(=O)C(=O)N/N=C1/CCCC1C(=O)CCC(=O)Nc1ccc(Cl)cc1 (configuration not stated) ?
Reply text: inactive

Inquiry: What outcome does the record of this test show for c1cc(-c2cnc(-c3ccc4c(c3)CCCO4)o2)ccn1 ?
Reply text: inactive

Inquiry: What outcome does the record of this test show for COc1cccc2c1C(=O)c1ccc3cc(CO)cc(O)c3c1C2=O ?
Reply text: active

Inquiry: What outcome does the record of this test show for COc1ccc(C2ON(c3ccccn3)CC=C2C)cc1 (configuration not stated) ?
Reply text: inactive

Inquiry: What outcome does the record of this test show for CCOP(=O)(OCC)C1CCCOC1=O (configuration not stated) ?
Reply text: inactive

Inquiry: What outcome does the record of this test show for CNC(=O)CCNC(=O)CCC(=O)OC ?
Reply text: inactive

Inquiry: What outcome does the record of this test show for COc1ccccc1N/C(=C\C(=O)C(=O)NC12CC3CC(CC(C3)C1)C2)c1ccccc1 ?
Reply text: inactive

Reference source for all entries: ChEMBL document CHEMBL1201862
